B1: MIA2 (parent)
chain: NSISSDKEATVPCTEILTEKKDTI

# Variants of: B1
# EXPERIMENT DESCRIPTION: protein stability index of a GFP-peptide fusion (GPS, HEK-293T) (PSI 1-6); higher = more stable;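 further: lentivirally expressed fusions sorted by FACS into six bins by GFP to DsRed ratio, PSI derived from sequencing read proportions per bin multiplied by bin number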
# SETUP CONDITIONS: c terminus: a fixed tail appended

ALTERATION	protein stability index
C13L	5.25
K21N	5.48
E8W	4.73
S5Q	5.43
K21V	5.1
D6R	4.9
S5A	5.33
S5Y	5.23
C13A	5.27
C13N	5.7
V11D	5.72
I16P	5.52
V11F	5.43
E15I	4.25
E15L	4.57
N1M	5.33
E8A	5.07
T10S	5.72
T23S	5.47
T18F	5.48
E8F	4.93
N1P	5.68
A9F	5.36
S2C	5.27
T10G	5.4
S4R	5.35
S2G	5.37
K7S	5.5
K20V	5.31
T18Y	5.19
T14R	5.33
E15V	4.66
I24W	5.32
T10F	5.27
P12R	5.38
T14I	5.21
P12F	4.92
E15T	5.46
I24A	5.66
T18I	5.19
K21I	5.14
A9P	5.38
S2T	5.1
S4G	4.98
K21F	5.07
N1Q	5.44
